- Test system: THRa:RXRa (NR concentration 90 nM, RXRa partner concentration 90 nM)
- assay-explanation: PBM binding z-score (relative to random genomic background probes); higher = stronger binding; sequences stand for … in GC…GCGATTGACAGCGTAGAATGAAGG

>  <sequence-input>
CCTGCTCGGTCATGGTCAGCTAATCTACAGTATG

>  <PBM binding z-score>
0.067

$$$$
>  <sequence-input>
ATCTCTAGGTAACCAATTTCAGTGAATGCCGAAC

>  <PBM binding z-score>
0.887

$$$$
>  <sequence-input>
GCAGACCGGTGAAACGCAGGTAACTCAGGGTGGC

>  <PBM binding z-score>
0.683

$$$$
>  <sequence-input>
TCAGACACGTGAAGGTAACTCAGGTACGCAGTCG

>  <PBM binding z-score>
1.21

$$$$
